system: LOX IMVI melanoma; test: NCI tumour cell line growth inhibition, 48 h; in the data active means GI50 below about 0.43 µM; inactive means the rest
Give one outcome, nothing more. List: active, inactive

# example entries with known answers
O=C(Nc1ccc(Cl)c(Cl)c1)Nc1c(Oc2ccc(Cl)c(Cl)c2)ccc(Cl)c1S(=O)(=O)O	inactive
CCOC(=O)c1cc2c(cc1Cl)SC(N(c1ccc(OC)cc1)S(=O)(=O)c1ccc(Cl)cc1)=NS2(=O)=O	inactive
C=C1CCC2C3(C)COC(c4ccccc4)OC3CCC2(C)C1/C=C/C1=CCOC1=O (configuration not stated)	inactive

Problem: Any idea what this test logged for `CS(=O)(=O)CCc1cccc(C(=O)c2cnn(-c3ccc(F)cc3)c2N)c1` ?
Result: inactive

Problem: Test call for this molecule, please: `Cc1nc2ccccc2c(/C=C/c2ccc(Cl)cc2)c1C(=O)/C=C/c1ccc(C(F)(F)F)cc1`
Result: active

Problem: Query: recorded result category for `CN(Cc1ccccc1)c1ccc(CO)c(Cl)c1` in this test
Result: inactive

Problem: Recorded call for `c1ccc(CN2COc3c(ccc4c3OCN(Cc3ccccc3)C4)C2)cc1` ?
Result: inactive

====

test system: SF-539 CNS; assay: NCI tumour cell line growth inhibition, 48 h; in the data active = GI50 below about 0.43 µM; inactive = the rest
// classify into T = active, F = inactive

Here's what some known entries look like.
Cc1nc2ccccc2c(/C=C/c2ccc(Cl)cc2)c1C(=O)/C=C/c1ccc(C(F)(F)F)cc1	T
Cn1c2c(c3ccc([N+](=O)[O-])cc3c1=O)C(=O)c1ccccc1-2	F
CCOC(=O)c1cc2c(cc1Cl)SC(N(c1ccc(OC)cc1)S(=O)(=O)c1ccc(Cl)cc1)=NS2(=O)=O	F
c1ccc(CN2COc3c(ccc4c3OCN(Cc3ccccc3)C4)C2)cc1	F
O=C1C=CC(=Nc2cc(Br)c(O)c(Br)c2)C=C1	F
N=c1ccn(O)cc1/C=C1/C(=O)Nc2ccccc21	F
Nc1c(C(=O)Nc2cccc(F)c2)sc2nc3c(cc12)C(=O)CCC3	T
CC(C)=CCC[C@](C)(O)[C@H]1CC[C@]2(C)[C@@H]1CC[C@@H]1[C@@]3(C)CC/C(=N/O)C(C)(C)[C@@H]3CC[C@]12C	F

Problem: // outcome(item) with item = `CC(=O)C1=C(O)C=C2Oc3c(C(=O)/C=C/c4c(Cl)cccc4Cl)c(O)c(C)c(O)c3[C@]2(C)C1=O`
Result: F

Problem: // return assay outcome for `Clc1ccc(-c2c3c(nn2-c2ccccn2)CCc2ccccc2-3)cc1Cl`
Result: F

Problem: Identify the outcome logged in this assay for the compound shown: `Cc1csc(/C=C/C(=O)c2nnn(-c3ccnc4c(C(F)(F)F)cccc34)c2C)c1`
Result: F

Problem: What did the test return for C[C@@]12CCC[C@@](C)(C(=O)O)C1CC[C@]13C[C@@](O)(CO)[C@](O)(CCC12)C3 (some centres undefined) ?
Result: F

Problem: In this assay, the call recorded for `O=C(Nc1ccncc1)C(=O)c1cn(S(=O)(=O)c2ccc(Cl)cc2)c2ccccc12` was what?
Result: F

Problem: Which outcome did this test record for the compound `Oc1ccc(-c2nc3ccccc3s2)cc1CN(Cc1ccccn1)Cc1ccccn1` ?
Result: F

====

tested on: RPMI-8226 leukemia; test: NCI tumour cell line growth inhibition, 48 h
Entries and their measured TGI follow.

CCC(=O)Nc1ccc(NC(C#N)c2cccc(Oc3ccccc3)c2)cc1 (stereo not drawn)	66.9 µM
CN1C(=O)C2C3C=C4c5ccccc5N(c5ccccc5)C4(C2C1=O)[C@H]1C(=O)N(C)C(=O)[C@@H]31 (stereo partly drawn)	> 100 µM
S=C(Nc1ccc(-c2nc3ccccc3[nH]2)cc1)Nc1ccc(-c2nc3ccccc3[nH]2)cc1	> 100 µM
COC1C(O)C(n2ncc3c(SC)nc(SC)nc32)OC1C(O)CO (stereo not drawn)	> 100 µM
CC(=O)C1C(c2ccc(N(C)C)cc2)c2cc3c(cc2OC1(C)O)OCO3 (stereo not drawn)	83.2 µM
O=Nc1ccc(NO)c2ccccc12	56.2 µM
Cc1ccc(S(=O)(=O)Oc2nc3ccccc3nc2OS(=O)(=O)c2ccc(C)cc2)cc1	> 100 µM

Consider the record given below.
Problem: Please list TGI recorded for the compound O=C(c1ccccc1)C1OC12C(=O)Nc1c(Cl)cc(Cl)cc12 (stereo not drawn)
Result: > 100 µM

====

system: SK-MEL-2 melanoma; assay: NCI tumour cell line growth inhibition, 48 h
The following compounds are listed with their measured log10 TGI values.
Transform log10 | Measure TGI | Unit µM

Would you please look over these solved cases?
Oc1ccc(-c2nc3ccccc3s2)cc1CN(Cc1ccccn1)Cc1ccccn1	0.99
CCOC(=O)c1cc2/c(=C\c3ccc(N(C)C)cc3)c3ccccc3n2[n+]1C	0.68
NCCCCCCCn1c2c(c3ccccc3c1=O)C(=O)c1ccccc1-2	0.75
CCOc1ccc(N/C(=C(/C(Cl)=C(/Cl)N2CCCCC2)[N+](=O)[O-])n2nnc3ccccc32)cc1	1.52

Problem: Let me know recorded log10 TGI for `C=CC(=O)Nc1cc(C)ccc1Nc1nc(Nc2cc(OC)ncc2C)ncc1C(F)(F)F` , thanks.
Result: 0.27

====

List of TGI values.
test system: CCRF-CEM leukemia; assay: NCI tumour cell line growth inhibition, 48 h

Problem: Consider the compound `CC(C)O/N=C/c1cc(NC(=S)OC(C)C)ccc1Cl` and give its recorded TGI.
Result: 34.6 µM

Problem: For the compound NC(=O)NCCCC(NC(=O)OCCCCCCn1ccc(=O)[nH]c1=O)C(=O)O (stereo not given) , give its measured TGI value.
Result: > 100 µM

Problem: Fill in TGI for record `O=C(c1ccccc1)c1ccc2[nH]c(-c3c(Cl)c(Cl)c(Cl)c(Cl)c3C(=O)N/N=C/c3cccc(Oc4ccccc4)c3)nc2c1`
Result: > 100 µM

Problem: For the compound C[C@@]12CCC[C@@](C)(C(=O)O)C1CC[C@]13C[C@@](O)(CO)[C@](O)(CCC12)C3 (stereo not given in full) , report TGI.
Result: > 100 µM

Problem: Identify TGI associated with the compound `Cn1cnc([N+](=O)[O-])c1Sc1nccn1-c1cccc2ccccc12`
Result: 68.5 µM

====

system: NCI/ADR-RES ovarian; assay: NCI tumour cell line growth inhibition, 48 h
QUANTITY_MEASURED: TGI

Oc1ccc(-c2nc3ccccc3s2)cc1CN(Cc1ccccn1)Cc1ccccn1	4.22 µM
Nc1nc2ncc(CNc3ccc(C(=O)NC(CCC(=O)O)C(=O)O)cc3)nc2c(=O)[nH]1 (stereo not given)	> 100 µM
CCOC(=O)C(Cc1ccc(OC(=O)c2ccc(OC)cc2)cc1)NC(=O)C(F)(F)F (stereo not given)	> 100 µM
NCC1OC(n2cnc3c(N)ncnc32)CC1O (stereo not given)	> 100 µM
C=CC(=O)Nc1cc(C)ccc1Nc1nc(Nc2cc(OC)ncc2C)ncc1C(F)(F)F	> 26.5 µM

Problem: Please look at this molecule and report its TGI: NC(=O)Cc1nc2c(N)ncnc2n1C1OC(CO)C(O)C1O (stereo not given)
Result: > 100 µM

Problem: Given `CCOc1ccc(N/C(=C(/C(Cl)=C(/Cl)N2CCCCC2)[N+](=O)[O-])n2nnc3ccccc32)cc1` , respond with its TGI.
Result: 43.5 µM

Problem: Identify measured TGI associated with COc1cccc(NC(=O)c2sc3nc(C)c(C(O)c4ccccc4)cc3c2N)c1 (stereo not given)
Result: 0.941 µM

Problem: Please report TGI for the following molecule: `O=[N+]([O-])C(=C(N1CCOCC1)N1CCOCC1)/C(Cl)=C(\Cl)Br`
Result: 52.9 µM

Problem: Quote TGI reported for `CN(C)CCn1c(=O)c2ccc(NCCN3CCNCC3)c3c(=O)c4ccccc4n(c1=O)c23` please.
Result: 30 µM

Problem: Look up and report measured TGI for this entry: COC(O)C(=O)c1ccc2c(c1)CC1(C2)Cc2cc3c(cc2C1=O)CCC3 (stereo not given)
Result: > 100 µM

Problem: Write down TGI measured for item CC1=C(c2ccccc2)NC(=S)C(C)C(c2ccccc2)=N1 (stereo not given)
Result: > 100 µM

Problem: In one line, give reported TGI of the entry `COc1ccc(Cc2nnc(Nc3ccc(Br)cc3)[nH]c2=O)cc1OC` .
Result: > 100 µM

====

# TGI annotations
tested on: KM12 colon; assay: NCI tumour cell line growth inhibition, 48 h

Cn1c2c(c3ccc([N+](=O)[O-])cc3c1=O)C(=O)c1ccccc1-2	> 100 µM
O=C(O)CCSCc1ccccc1	> 100 µM
O=c1[nH]c(=S)[nH]c2c1CN(CCCN1CCOCC1)CN2	95.9 µM
Nc1nc2c(ncn2C2C=CC(CO)C2)c(=O)[nH]1 (centres undefined)	> 100 µM
CC(=O)Nc1c(C)cc2c(nc3n2CCC3OC(C)=O)c1[N+](=O)[O-] (centres undefined)	> 100 µM
Cc1ccc(/C(O)=C/C(=O)C(=O)NC23CC4CC(CC(C4)C2)C3)cc1	> 10 µM
Clc1ccc(-c2c3c(nn2-c2ccccn2)CCc2ccccc2-3)cc1Cl	> 100 µM
Cc1c2c(c(O)c3c(O)cccc13)C(=O)C1(O)C(O)=C(C(=O)NCNc3ccc(C(N)=O)cn3)C(=O)C(N(C)C)C1C2 (centres undefined)	15.6 µM

Problem: Query TGI for Cn1c(=O)c2c(nc3n2CCCC(=O)N3CC(O)CCl)n(C)c1=O (centres undefined)
Result: > 100 µM

Problem: Determine its reported TGI: COC1C(O)C(n2ncc3c(SC)nc(SC)nc32)OC1C(O)CO (centres undefined)
Result: > 100 µM

Problem: Annotate the molecule `CC(=O)C1=C(O)C=C2Oc3c(C(=O)/C=C/c4c(Cl)cccc4Cl)c(O)c(C)c(O)c3[C@]2(C)C1=O` with its measured TGI.
Result: 3.99 µM

Problem: Give TGI for the following molecule: `C#CCSc1cc(Cl)c(C)cc1S(=O)(=O)Nc1nc2ccccc2o1`
Result: 75.4 µM

Problem: Give recorded TGI. N#Cc1c(-c2ccc(Cl)cc2)[nH]c(=O)n(C2OC(CO)C(O)C(O)C2O)c1=O (centres undefined)
Result: > 100 µM

Problem: Note TGI for the molecule shown: COC1CN(C)C(=Nc2cccc3ccccc23)S1 (centres undefined)
Result: > 10 µM
